- PROTOCOL TEXT: CCTE_Simmons_MITO_max_resp_rate: CCTE's HepG2 Seahorse XF Respirometric Screening Assay at Maximal Respiratory State [uncoupled], Simmons Lab (AID 2284002)
- PROTOCOL CONDITIONS: actives raise or lower the signal
Active and inactive are the calls of the source. Rule for the calls: active = hit-call score of the fitted dose curve at least 0.9, where 1 is the maximum; inactive = score below 0.9.
Please reply with one of these outcomes: active, inactive

INSERT INTO assay_data (compound, category_label) VALUES
  ('CC(C)=CCC/C(C)=C/CO', 'inactive'),
  ('CCn1nc(Cc2ccccc2)cc1C1CCN(C[C@H]2C[C@H](N(C)[C@@H](C(=O)O)C(C)C)C[C@@H]2c2cccc(F)c2)CC1', 'inactive'),
  ('O=C(O)c1cccc(N(Cc2cccnc2)c2ccc(OC(F)F)c(OC(F)F)c2)c1', 'inactive'),
  ('Cc1ccc(N)cc1O', 'active'),
  ('Cn1c(=O)cc(Oc2ccc(F)cc2F)c2cnc(NCC(C)(C)O)nc21', 'inactive');

What was the test verdict on O=C(CCCCCCCCc1cccnc1)N1CCC(C=C(c2ccccc2)c2ccccc2)CC1 ? inactive

Called result for COc1ccc(/C=C/S(=O)(=O)NC(=O)c2ccc(C)cc2Cl)cc1 active

###

- PROTOCOL TEXT: APR_HepG2_MicrotubuleCSK_72hr: Apredica 72-hour HepG2 Assay for Microtubule CSK Stabilty (AID 2282919)
- PROTOCOL CONDITIONS: HepG2 microtubule cytoskeleton, high-content imaging, actives raise or lower the signal
The source made the active and inactive calls. How the source made its calls: active means hit-call score of the fitted dose curve at least 0.9, where 1 is the maximum; inactive means score below 0.9.
API: response.call in active, inactive

Entry CC(=O)OC[C@H]1O[C@@](COC(C)=O)(O[C@H]2O[C@H](COC(C)=O)[C@@H](OC(C)=O)[C@H](OC(C)=O)[C@H]2OC(C)=O)[C@@H](OC(C)=O)[C@@H]1OC(C)=O : call = ? inactive

Returns: the outcome recorded for Cc1ccc(C)c(O)c1 in this assay. inactive

###

- Read-out: Transforming growth factor beta 1 (TGFb1), TGFB1 (gene 7040)
- PROTOCOL TEXT: BSK_BE3C_TGFb1: BioMAP Diversity Plus: BE3C Assay for Transforming growth factor beta 1 (TGFb1) Biomarker Activity (AID 2283036)
- PROTOCOL CONDITIONS: primary human bronchial epithelial cells; actives raise or lower the signal
- Experimental: BSK_BE3C is a cell-based, multiplexed-readout assay that uses bronchial epithelial cell, a human lung primary cell, with measurements taken at 24 hours after chemical dosing in a 96-well plate.BSK_BE3C_TGFb1 is an assay component measured in the BSK_BE3C assay. It measures TGF-b1 antibody related to regulation of gene expression using ELISA technology.Data from the assay component BSK_BE3C_TGFb1 was analyzed into 1 assay endpoint. […]
Activity calls are given as the source filed them. Rule for the calls: active = hit-call score of the fitted dose curve at least 0.9, where 1 is the maximum; inactive = score below 0.9.
Pick one: active, inactive

Reference set, count: 5
INSERT INTO results (compound, category_label) VALUES
  ('COc1ccc(/C=C/S(=O)(=O)NC(=O)c2ccc(C)cc2Cl)cc1', 'inactive'),
  ('CC(C)CCCCCCCOC(=O)CCCCC(=O)OCCCCCCCC(C)C', 'inactive'),
  ('On1ccccc1=S', 'active'),
  ('O=C(O)c1cccc(Oc2ccccc2)c1', 'inactive'),
  ('COC(=O)CC(=O)OC', 'inactive');

Record lookup: outcome of this test for O=C1CCCCCN1 ? inactive

Outcome logged for O=c1[nH]c2ccc(S(=O)CCN3CCC(Cc4ccc(F)cc4)CC3)cc2o1 (stereo not given) in this assay: inactive

Recorded test call requested for COC(=O)c1ccccc1O inactive

Dear colleague, could you share the recorded outcome for CC(=O)OCCC(C)C when you have a moment? inactive

Could you kindly confirm the outcome this assay logged for CN(C)c1ccc(N=NS(=O)(=O)O)cc1 ? inactive

###

- SYSTEM UNDER TEST: human Norepinephrine Transporter (NET), SLC6A2 (gene 6530) (UniProt P23975)
- Sequence (P23975 whole entry, looked up): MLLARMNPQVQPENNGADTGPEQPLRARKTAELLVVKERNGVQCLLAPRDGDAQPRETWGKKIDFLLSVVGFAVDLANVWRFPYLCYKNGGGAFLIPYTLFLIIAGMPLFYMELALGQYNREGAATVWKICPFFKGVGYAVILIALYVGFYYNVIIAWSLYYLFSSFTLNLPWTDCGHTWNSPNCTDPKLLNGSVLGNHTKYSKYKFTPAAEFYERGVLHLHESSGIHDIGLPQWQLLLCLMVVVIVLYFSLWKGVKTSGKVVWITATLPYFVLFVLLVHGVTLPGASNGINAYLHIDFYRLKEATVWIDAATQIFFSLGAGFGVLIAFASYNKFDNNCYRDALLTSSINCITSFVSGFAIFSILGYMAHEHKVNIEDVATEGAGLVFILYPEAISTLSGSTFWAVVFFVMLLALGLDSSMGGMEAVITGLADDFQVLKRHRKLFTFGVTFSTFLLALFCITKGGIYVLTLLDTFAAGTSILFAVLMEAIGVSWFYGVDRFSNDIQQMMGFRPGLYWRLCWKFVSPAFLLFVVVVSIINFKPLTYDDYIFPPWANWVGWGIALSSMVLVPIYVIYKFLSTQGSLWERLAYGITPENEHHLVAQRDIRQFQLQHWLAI
- PROTOCOL TEXT: NVS_TR_hNET: NovaScreen (NVS) Transporter Assay for human Norepinephrine Transporter (NET) (AID 2283377);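 note: cell-free membrane protein extracted from CHO cells expressing human NET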
Inconclusive results are not listed. Calls of active or inactive are those of the source. How the source made its calls: active means hit-call score of the fitted dose curve at least 0.9, where 1 is the maximum; inconclusive means response in the unintended direction; inactive means score below 0.9.
Hi! Could you answer with just one of these? active, inactive

INSERT INTO measurements (molecule, system_under_test, category_label) VALUES
  ('Cn1c(=O)cc(Oc2ccc(F)cc2F)c2cnc(NCC(C)(C)O)nc21', 'human Norepinephrine Transporter (NET), SLC6A2 (gene 6530) (UniProt P23975)', 'active'),
  ('CCCCCCc1ccc(O)cc1O', 'human Norepinephrine Transporter (NET), SLC6A2 (gene 6530) (UniProt P23975)', 'active'),
  ('Oc1ccc2c(c1)-c1ccccc1C2', 'human Norepinephrine Transporter (NET), SLC6A2 (gene 6530) (UniProt P23975)', 'active');

Write down the call the test reported for this molecule. Item: CCOc1cccc(-n2cc(C(=O)N3CCN(c4cc(C(=O)O)c5ccccc5c4)CC3)nc2-c2ccc(C)cc2)c1 active

Answer briefly: the call reported for CCOC(=O)COc1ccc2c(c1)CC(NCC(O)c1cccc(Cl)c1)CC2 (stereo unspecified) in this assay. active

Which outcome did this test record for the molecule CCC(C)(C)C(=O)O[C@H]1C[C@@H](C)C=C2C=C[C@H](C)[C@H](CC[C@@H]3C[C@@H](O)CC(=O)O3)[C@H]21 ? inactive

Just curious, what result did CC(C)CCCCCCCOC(=O)CCCCC(=O)OCCCCCCCC(C)C get here? inactive

# lookup: test call for CCc1cc(SCc2sc(-c3ccc(C(F)(F)F)cc3)nc2CN2CCN(c3ccc(OC)cc3)CC2)ccc1OCC(=O)O active

# outcome recorded in this test, key = Nc1ccc(Nc2ccccc2)cc1 active

Kindly provide the recorded test outcome for the following molecule: COc1ccc2sc(C(=O)Nc3nnn[nH]3)c(OC(C)C)c2c1 inactive

Recorded test call requested for CCn1nc(Cc2ccccc2)cc1C1CCN(C[C@H]2C[C@H](N(C)[C@@H](C(=O)O)C(C)C)C[C@@H]2c2cccc(F)c2)CC1 active

###

- PROTOCOL TEXT: ATG_PXRE_CIS: Attagene CIS-FACTORIAL HepG2 Assay for human Pregnane X Receptor Element (PXRE) (AID 2282957)
- PROTOCOL CONDITIONS: HepG2 Attagene CIS-FACTORIAL PXRE reporter, mRNA; actives raise or lower the signal
The source made the active and inactive calls. Rule for the calls: active = hit-call score of the fitted dose curve at least 0.9, where 1 is the maximum; inactive = score below 0.9.
REPORTED PROPERTY: AC50

For orientation, consider the following solved cases.
INSERT INTO measurements (compound, experimental_value) VALUES
  ('COC(=O)CC(=O)OC', 'inactive'),
  ('O=C(O)CC(O)C(=O)O (configuration not stated)', 'inactive'),
  ('CC(C)=CCC/C(C)=C/CO', 'inactive'),
  ('CC(=O)OCCC(C)C', 'inactive'),
  ('CC(C)=CCCC(C)=CC=O', '4.7 µM (active)');

Can you look up the measured AC50 of CC(C)CCCCCCOC(=O)c1ccc(C(=O)OCCCCCCC(C)C)c(C(=O)OCCCCCCC(C)C)c1 for me? inactive

Give its AC50 value. Item: CCOC(=O)CC(CC(=O)OCC)(OC(C)=O)C(=O)OCC 27.3 µM (active)

Report AC50 for CNCc1ccc(NC(=O)c2c[nH]c3c2C(=O)CCC3)cc1 please. inactive

Fill in: AC50 of CN(C)c1ccc(N=NS(=O)(=O)O)cc1 is ___ inactive

AC50 lookup needed for Cc1ccc(S(=O)(=O)O)cc1C , thanks. inactive

Would you kindly share the measured AC50 for CNS(=O)(=O)c1cc(C(=O)N2CCC(CCN3C4CCC3CC(n3c(C)nc5ccccc53)C4)(c3cccc(F)c3)CC2)c(Cl)cc1F (configuration not stated) ? 1.08 µM (active)

What AC50 value was documented for this compound, CCOC(=O)c1ccc(C2CCC(NC[C@H](O)COc3ccc(O)c(NS(C)(=O)=O)c3)CC2)cc1 (some centres not stated) ? inactive

Look up AC50 for this compound: CC1=CC(=O)CC(C)(C)C1 50 µM (active)

For the compound shown here, Cc1ccc(N)cc1O , give the reported AC50. inactive

Entry Fc1ccccc1[C@@H](F)COC1CCC(Nc2ncnc3[nH]ncc23)CC1 (some centres not stated) : reported AC50 = ? 25.4 µM (active)

I would be grateful if you could share the reported AC50 for O=C(OC[C@H]1O[C@@H](OC(=O)c2cc(O)c(O)c(OC(=O)c3cc(O)c(O)c(O)c3)c2)[C@H](OC(=O)c2cc(O)c(O)c(OC(=O)c3cc(O)c(O)c(O)c3)c2)[C@@H](OC(=O)c2cc(O)c(O)c(OC(=O)c3cc(O)c(O)c(O)c3)c2)[C@@H]1OC(=O)c1cc(O)c(O)c(OC(=O)c2cc(O)c(O)c(O)c2)c1)c1cc(O)c(O)c(OC(=O)c2cc(O)c(O)c(O)c2)c1 . inactive

Request the reported AC50 associated with CN(C)c1ccc(Cc2ccc(N(C)C)cc2)cc1 26.6 µM (active)

Given the compound O=c1n(CC2CO2)c(=O)n(CC2CO2)c(=O)n1CC1CO1 (configuration not stated) , what is its reported AC50? 21.3 µM (active)

Query (compound): C[C@](N)(Cc1ccc(O)c(O)c1)C(=O)O ; field requested: AC50 inactive

What AC50 value was documented for this compound, C=CCCCCCCCCC(=O)O ? inactive

// provenance: PubChem BioAssay (EPA / NIEHS)
